system: HEK293; assay: Cytotoxicity against human HEK293 cells at 40 uM after 72 hrs by resazurin dye based fluorescence assay; type: cell-based; conditions: hek293, 72 h, 40 µM
assay-readout: Activity

Cc1c(O)c([C@@H](CC(C)C)C2=C(O)C(C)(C)C(=O)C(C)(C)C2=O)c(O)c2c1O[C@H](c1ccccc1)CC2=O :: 75%
Cc1c(O)c2c(c3c1OC1=C(C(=O)C(C)(C)C(=O)C1(C)C)[C@H]3CC(C)C)O[C@H](c1ccccc1)CC2=O :: Non-Toxic
Cc1c(O)c2c(c3c1OC1=C(C(=O)C(C)(C)C(=O)C1(C)C)[C@@H]3CC(C)C)O[C@H](c1ccccc1)CC2=O :: Non-Toxic
CC(C)C[C@H]1C[C@@]2(CC[C@H]3C[C@@H]2C3(C)C)OC2=C1C(=O)C(C)(C)C(=O)C2(C)C :: Non-Toxic
Cc1c2c(c(O)c3c1OC1=C(C(=O)C(C)(C)C(=O)C1(C)C)C3CC(C)C)C(=O)C[C@@H](c1ccccc1)O2 (some centres undefined) :: Non-Toxic

Okay, next one:
Fill in Activity for record CC(C)CC[C@]1(O)[C@H](O)C(C)(C)[C@@H](O)C(C)(C)[C@@H]1O
Non-Toxic

* * *

system: HEK293; experiment: Cytotoxicity against human HEK293 cells at 40 uM after 72 hrs by resazurin dye based fluorescence assay; assay type: cell-based; conditions: hek293, 72 h, 40 µM
For each entry below, report its Activity value.
Write the answer as a number in %, unit excluded.

Fill in Activity for record CCc1nc(N)nc(N)c1-c1ccc(Cl)cc1 [PYRIMETHAMINE]
62

Fill in Activity for record Cc1c(O)c([C@H](CC(C)C)C2=C(O)C(C)(C)C(=O)C(C)(C)C2=O)c(O)c2c1O[C@H](c1ccccc1)CC2=O
75
